Molecular target: recombinant full-length FEN-1 (Homo sapiens (Human))
Sequence (P39748 whole entry): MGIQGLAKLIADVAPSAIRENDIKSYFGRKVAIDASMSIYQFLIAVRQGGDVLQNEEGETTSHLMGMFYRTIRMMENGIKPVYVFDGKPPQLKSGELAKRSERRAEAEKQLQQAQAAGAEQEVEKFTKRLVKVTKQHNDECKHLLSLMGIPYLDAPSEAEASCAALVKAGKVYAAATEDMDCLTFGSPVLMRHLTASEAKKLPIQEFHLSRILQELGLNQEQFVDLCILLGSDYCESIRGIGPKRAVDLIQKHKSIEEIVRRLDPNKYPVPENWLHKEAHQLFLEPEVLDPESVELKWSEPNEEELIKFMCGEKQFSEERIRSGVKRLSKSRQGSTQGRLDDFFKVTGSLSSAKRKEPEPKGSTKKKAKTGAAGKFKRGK
Experiment: Fluorogenic biochemical (enzymatic) assay, FEN-1
Conditions: 200 nM DNA flap substrate, 50 mM Tris pH 8.0, 10 mM MgCl2, 2-4 hours at 25° C. or 37° C., read-out: SMD FEN-1 IC50
Doc: threshold 200 nM (exclusive). Items with IC50 beneath it return yes (1); others return no (0).

Is IC50 strictly under 200 nM for the entry Cc1cccc(S(=O)(=O)c2c(F)ccc3c(=O)n(O)c(=O)[nH]c23)c1 ?
yes (1)

Is IC50 strictly under 200 nM for the entry Cn1c(=O)n(O)c(=O)c2cccnc21 ?
no (0)

Is IC50 strictly under 200 nM for the entry CNC(=O)Nc1cccc(S(=O)(=O)c2cccc3c(=O)n(O)c(=O)[nH]c23)c1 ?
yes (1)

Is IC50 strictly under 200 nM for the entry O=c1c2cccnc2n(-c2ccccc2)c(=O)n1O ?
no (0)

Is IC50 strictly under 200 nM for the entry O=c1[nH]c2cc(S(=O)(=O)Cc3ccccc3)ccc2c(=O)n1O ?
yes (1)
